# measurement description: in vitro
# Assay type: cell-based
# condition context: human; NCI-H446 cells; read-out: cytotoxic activity IC50
metric: IC50

Sample answers from the record:
CO[C@H](C)[C@@H](/C=C/C=C/C(=O)N(C)[C@H]1CCCN(C)C(=O)[C@H](C)N(C)C(=O)[C@H](C(C)C)N(C)C1=O)OC : > 30 µM
C/C=C/C=C/C=C/C(=O)N[C@H]1CCCNC(=O)[C@H](C)N(C)C(=O)[C@H](C(C)C)N(C)C1=O [Compound 6, sclerotiotide B] : > 30 µM
COC(=O)/C=C/C=C/C(=O)N[C@H]1CCCNC(=O)[C@H](C)N(C)C(=O)[C@H](C(C)C)N(C)C1=O : > 30 µM
CC(C)[C@H]1C(=O)N(C)[C@@H](C)C(=O)NCCC[C@H](NC(=O)/C=C/C=C/C=O)C(=O)N1C [Compound 5, sclerotiotide F] : > 30 µM
CO[C@H](/C=C/C=C/C(=O)N[C@H]1CCCNC(=O)[C@H](C)N(C)C(=O)[C@H](C(C)C)N(C)C1=O)[C@@H](C)O : > 30 µM

Below: the item to evaluate.
Look at this compound and give its reported IC50. `CC(C)[C@H]1C(=O)N(C)[C@@H](C)C(=O)NCCC[C@H](NC(=O)/C=C/C=C/C(=O)O)C(=O)N1C`
> 30 µM

---

# measurement description: in vitro
# Assay type: cell-based
# condition context: human; SH-SY5Y cells; read-out: cytotoxic activity IC50
Below, each of the compounds is paired with its reported IC50 value.

CO[C@H](C)[C@@H](/C=C/C=C/C(=O)N(C)[C@H]1CCCN(C)C(=O)[C@H](C)N(C)C(=O)[C@H](C(C)C)N(C)C1=O)OC [Compound 3] : > 30 µM
C/C=C/C=C/C=C/C(=O)N[C@H]1CCCNC(=O)[C@H](C)N(C)C(=O)[C@H](C(C)C)N(C)C1=O [Compound 6, sclerotiotide B] : > 30 µM

Now look at this one.
Value lookup for IC50; key = CC(C)[C@H]1C(=O)N(C)[C@@H](C)C(=O)NCCC[C@H](NC(=O)/C=C/C=C/C(=O)O)C(=O)N1C [Compound 1]
> 30 µM

---

# Test system: Proteus species
# measurement description: organism not typed
Listed here: items and their measured MIC, P. species.
API: value field is a number in µM; no unit string.

CC(C)[C@H]1C(=O)N(C)[C@@H](C)C(=O)NCCC[C@H](NC(=O)/C=C/C=C/C=O)C(=O)N1C [Compound 5, sclerotiotide F] : 25.0

Find the measured MIC, P. species: item `CO[C@H](/C=C/C=C/C(=O)N[C@H]1CCCNC(=O)[C@H](C)N(C)C(=O)[C@H](C(C)C)N(C)C1=O)[C@@H](C)O` , target or system Proteus species.
25.0

Short answer please: MIC, P. species, Proteus species, entry `COC(=O)/C=C/C=C/C(=O)N[C@H]1CCCNC(=O)[C@H](C)N(C)C(=O)[C@H](C(C)C)N(C)C1=O`
6.25

Request - read-out MIC, P. species | tested on Proteus species | compound `CC(C)[C@H]1C(=O)N(C)[C@@H](C)C(=O)NCCC[C@H](NC(=O)/C=C/C=C/C(=O)O)C(=O)N1C`
3.13

---

# measurement description: in vitro
# Assay type: cell-based
# condition context: human; A549 cells; read-out: cytotoxic activity IC50
pIC50: −log10 of the molar value.
metric: pIC50

Worked cases, answers included:
CC(C)[C@H]1C(=O)N(C)[C@@H](C)C(=O)NCCC[C@H](NC(=O)/C=C/C=C/C(=O)O)C(=O)N1C [Compound 1] : < 4.52
C/C=C/C=C/C=C/C(=O)N[C@H]1CCCNC(=O)[C@H](C)N(C)C(=O)[C@H](C(C)C)N(C)C1=O [Compound 6, sclerotiotide B] : < 4.52

Please examine the following record next.
State the recorded pIC50 for this entry: CO[C@H](/C=C/C=C/C(=O)N[C@H]1CCCNC(=O)[C@H](C)N(C)C(=O)[C@H](C(C)C)N(C)C1=O)[C@@H](C)O [Compound 4]
< 4.52

Where do the numbers come from? From paper PMC7694092.
